Biological target: GAL4 DBD-CfEcR(DEF)/VP16AD-MmRXRE (Choristoneura fumiferana)
Sequence (O77240 1-513): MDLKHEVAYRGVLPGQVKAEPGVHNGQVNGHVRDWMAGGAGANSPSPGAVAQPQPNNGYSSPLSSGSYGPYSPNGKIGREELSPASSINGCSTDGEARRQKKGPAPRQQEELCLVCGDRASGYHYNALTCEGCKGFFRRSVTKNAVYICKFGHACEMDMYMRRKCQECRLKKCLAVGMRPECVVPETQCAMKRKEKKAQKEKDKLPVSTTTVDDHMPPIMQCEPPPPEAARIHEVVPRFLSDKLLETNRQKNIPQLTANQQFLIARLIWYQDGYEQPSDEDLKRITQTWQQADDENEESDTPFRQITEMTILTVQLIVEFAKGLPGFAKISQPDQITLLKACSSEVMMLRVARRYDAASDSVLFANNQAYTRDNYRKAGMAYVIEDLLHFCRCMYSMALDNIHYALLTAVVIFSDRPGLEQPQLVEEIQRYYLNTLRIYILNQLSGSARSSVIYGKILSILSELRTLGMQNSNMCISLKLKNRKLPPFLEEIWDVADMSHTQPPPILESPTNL
Experiment: cell-based
Quick list: Fold Induction Average, 13B3 Assay (33 μM) per entry.
Reply with the value as a number alone.

// worked examples, Fold Induction Average, 13B3 Assay (33 μM) included
COMPOUND: COc1cccc(C(=O)NC2(C(=O)c3cc(C)cc(C)c3)CCN(C(=O)OC(C)(C)C)CC2)c1C [Example 110]
DATA VALUE: 2
--
COMPOUND: CC(=O)NC(C(=O)c1ccccc1)c1ccc(C)cc1 (stereo not shown) [Example 93]
DATA VALUE: 0
--
COMPOUND: CC(=O)NC(C(=O)c1ccccc1)c1ccccc1 (stereo not shown) [Example 94]
DATA VALUE: 1
--
COMPOUND: COc1cccc(C(=O)C(C)(C)NC(=O)c2ccccc2OC)c1 [Example 117]
DATA VALUE: 12
--
COMPOUND: COc1cccc(C(=O)C(C)(Cc2ccccc2)NC(=O)c2cccc(OC)c2C)c1 (stereo not shown) [Example 100]
DATA VALUE: 0

Request the reported Fold Induction Average, 13B3 Assay (33 μM) associated with Cc1ccc(C(=O)NC(C(=O)c2ccccc2)C(C)(C)C)cc1 (stereo not shown) [Example 96]
0

Entry under review: CCC(CC)(NC(=O)c1cccc(OC)c1C)C(=O)c1ccc(OC)cc1 [Example 58] . Reported Fold Induction Average, 13B3 Assay (33 μM)?
4

Can you look up the measured Fold Induction Average, 13B3 Assay (33 μM) of COc1ccccc1C(=O)NC(C)(C)C(=O)c1cc(C)cc(C)c1 [Example 119] for me?
0

Fill blank: measured Fold Induction Average, 13B3 Assay (33 μM) of the compound COc1ccc(C(=O)C2(NC(=O)c3cccc(OC)c3C)CCCC2)cc1 [Example 41] is ____.
2

What value of Fold Induction Average, 13B3 Assay (33 μM) has been recorded for this entry: COc1cccc(C(=O)NC(C(=O)c2cc(C)cc(C)c2)C(C)(C)C)c1C (stereo not shown) [Example 115]
1

Find the recorded Fold Induction Average, 13B3 Assay (33 μM) belonging to COc1cccc(C(=O)NC2(C(=O)c3ccc(C)cc3)CC2)c1C [Example 24] and report it.
87

Can you share its Fold Induction Average, 13B3 Assay (33 μM)? I mean this compound: COc1cccc(C(=O)NC2(C(=O)c3ccccc3C)CC2)c1C [Example 101]
2

Param item = COc1cccc(C(=O)NC2(C(=O)c3cccc(C)c3)CCC3(CC2)OCCO3)c1C [Example 35] ; retrieve measured Fold Induction Average, 13B3 Assay (33 μM).
2

// query Fold Induction Average, 13B3 Assay (33 μM) value for entry Cc1nc2ncc(C(=O)NC3(C(=O)c4ccccc4)CCCC3)c(C)n2n1 [Example 103]
0

Value source: patent US8129355B2
